Items are presented alongside their recorded S/N vs BSA.
- study system: T1, hVEGF-A (8-109) (human, UniProt P15692 214-315)
- T1 sequence (looked up): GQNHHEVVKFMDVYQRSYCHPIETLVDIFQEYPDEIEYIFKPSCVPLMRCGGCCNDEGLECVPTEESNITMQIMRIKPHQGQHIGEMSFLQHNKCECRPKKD
- assay explanation: spot phage ELISA

binder | S/N vs BSA
GCHLFEPLWGCKQDSDCLAGCVCHWYQSCG (designed binder) [VEGF_CKP9.L1.2] | 12.5
GCHRLQPLWGCKQDSDCLAGCVCHWYQSCG (designed binder) [VEGF_CKP9.L1.19] | 11.6
GCQVLQPSWGCKQDSDCLAGCVCHWYQSCG (designed binder) [VEGF_CKP9.L1.79] | 10
GCQLMQPFWGCKQDSDCLAGCVCHWYQSCG (designed binder, also called E9) [VEGF_CKP9] | 7.4
